test system: plasma; assay: Kaolin Activated Partial Thromboplastin Time Test (APTT); assay type: biochemical; settings: 37°
Please go through the items and note down their APTT CT2 (Concentration required to double clotting time).
Numbers only, in µM.

Answer for every listed entry: what is its APTT CT2 (Concentration required to double clotting time)? The entries follow.
1. CC(=N)N1CCC(CCOC(=O)[C@H](NC(=O)c2cccc(C(=N)N)c2)c2ccccc2)CC1 [Example 84]
2. Cc1ccc(CNC(=O)[C@H](NC(=O)c2cccc(C(=N)N)c2)c2ccccc2)cc1 [Example 64]
3. CC(C)[C@@H](NC(=O)[C@H](NC(=O)c1cccc(C(=N)N)c1)c1ccccc1)C(N)=O [Example 37]
4. N=C(N)c1cccc(C(=O)N[C@@H](C(=O)OCCC2CCN(C(=N)N)CC2)c2ccccc2)c1 [Example 87]

Out:
1. 5.8
2. 7.6
3. 36
4. 14
